Let's look at some compounds and their measured Coffee-like thickness (initial taste).
Test: Organoleptic evaluation of coffee-like thickness in milk coffee with 0.2 ppm γ-Glu-Val-Gly (Example 1)
Details: milk coffee + 0.2 ppm γ-Glu-Val-Gly (control sample = score 0); 0 to 1 second after drinking; score 0 to 3 (0 no effect, 1 weakly effective, 2 effective, 3 strongly effective); 2 to 4 panelists; ingredient ppm: succinic acid 5, proline 12.5, KH2PO4 3, K2HPO4 12.5, L-tartaric acid 6, adipic acid 25, citric acid 3.5, CaCl2 50, MgCl2 12.5, DL-malic acid 3, trisodium citrate 0.8, sodium fumarate 1.5
Answer field: number only, no words.

Illustrative cases are given below, each with its answer.
- O=C(O)CC(O)C(=O)O (racemic) [DL-Malic acid]: 0
- O=P([O-])(O)O.[K+] [Potassium dihydrogenphosphate]: 0
- [Ca+2].[Cl-].[Cl-] [Calcium chloride]: 0
- [Cl-].[Cl-].[Mg+2] [Magnesium chloride]: 0
- O=C(O)[C@@H]1CCCN1 [Proline]: 0
- O=C(O)[C@H](O)[C@@H](O)C(=O)O [L-Tartaric acid]: 1.5
- O=P([O-])([O-])O.[K+].[K+] [Dipotassium hydrogenphosphate]: 0
- O=C(O)CCCCC(=O)O [Adipic acid]: 1.0
- O=C([O-])CC(O)(CC(=O)[O-])C(=O)[O-].[Na+].[Na+].[Na+] [Trisodium citrate]: 0
- O=C(O)CC(O)(CC(=O)O)C(=O)O [Citric acid, reference compound]: 0

Problem: Please give measured Coffee-like thickness (initial taste) of the following entry: O=C([O-])/C=C/C(=O)[O-].[Na+].[Na+] [Sodium fumarate]
Solution: 0

Problem: Please give measured Coffee-like thickness (initial taste) of the following entry: O=C(O)CCC(=O)O [Succinic acid]
Solution: 0

Values were extracted from patent US20180352841A1.
